Recorded values, source patent US20180185450A1.

# experimentalTarget: human GLP-1 receptor (human, UniProt P43220 24-463)
# testSummary: cell-based or functional assay
Numbered stars: 1 amine (or outer) side, 2 acyl side, 3 side chain; on linkers, the order of the positions; unused ones are H or OH. Square brackets hold non-standard residues; d marks the D form. Side chains are listed from the residue outwards. Ends that are not written are not given here. γGlu = O=C(O)[C@H](CCC(=O)[*:2])N[*:1]; x53 = not defined here; Aib = CC(C)(N)C(=O)O
hey, just use Fulfilled if measured EC50 hGLP-1R (cAMP) is less than 4 pM, otherwise Not fulfilled

Q. In the record for H[Aib]QGTFTSDLSKQK([γGlu-x53])ESQAAQEFIEWLKAGGPSSGAPPPS-NH2 (reading uncertain) [SEQ ID NO: 38] , is EC50 hGLP-1R (cAMP) less than 4 pM?
A. Fulfilled

Q. In the record for HXQGTFTSDLSKQKDSKAAQDFIEWLKAGGPSSGAPPPS (dSer at 2; K(γE-γE-x53) at 14; C-terminal NH2) [SEQ ID NO: 140] , is EC50 hGLP-1R (cAMP) less than 4 pM?
A. Fulfilled

Q. In the record for HXQGTFTSDLSKQKDKRRAQDFIEWLKAXGPSSGAPPPS (Aib at 2; K(γE-x70) at 14; dAla at 29; C-terminal NH2) [SEQ ID NO: 209] , is EC50 hGLP-1R (cAMP) less than 4 pM?
A. Not fulfilled

Q. In the record for HXQGTFTSDLSKQKESRRAQDFIEWLKSGGPSSGAPPPS (dSer at 2; K(γE-x53) at 14; C-terminal NH2) [SEQ ID NO: 129] , is EC50 hGLP-1R (cAMP) less than 4 pM?
A. Not fulfilled

Q. In the record for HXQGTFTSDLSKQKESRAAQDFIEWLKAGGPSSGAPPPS (dSer at 2; K(GABA-x74) at 14; C-terminal NH2) [SEQ ID NO: 56] , is EC50 hGLP-1R (cAMP) less than 4 pM?
A. Not fulfilled

Q. In the record for HXQGTFTSDLSKQKESRAAXLFIEWLKNGGPSSGAPPPS (dSer at 2; K(γE-x53) at 14; Aib at 20; C-terminal NH2) [SEQ ID NO: 121] , is EC50 hGLP-1R (cAMP) less than 4 pM?
A. Not fulfilled
